- Experiment description: NCI Yeast Anticancer Drug Screen. Data for the mlh1 rad18 strain (AID 175)
- Run conditions: S. cerevisiae mlh1 rad18 strain growth inhibition; at 50.0 µM (retest, dose inferred, filed as 5.0)
This is part of a sample that, as a whole, favours compounds with a hit. Of some 79,000 tested, about 15% had one in any assay. The source made the active and inactive calls. Cut-off read from the data, not from the text of the source: active = growth inhibition above about 70%; inactive = the rest.
Use one of these outcomes when replying: active, inactive

# Compound, Label
records = [
    ("NC(=O)c1c(Cl)nc2n1CCS2", "inactive"),
    ("Brc1c2nc3ccccc3nc2n2ccc3ccccc3c12", "inactive"),
    ("O=c1[nH]c2ccccc2c2cccc(F)c12", "active"),
    ("O=C(CCl)OCC(=O)c1ccc(-c2ccccc2)cc1", "active"),
]

Qu. I'd appreciate the recorded outcome for "O=C(OCc1ccccc1CN1CCOCC1)c1cccc(Br)c1" from this test.
Ans. inactive

Qu. Status in this test for "Cn1c(=S)c2[nH]c(SC3CCCCC3)nc2n(C)c1=O" ?
Ans. inactive

Qu. Returns: the outcome recorded for "C#CCn1cnc2c(N)ncnc21" in this assay.
Ans. inactive

Qu. // param item: "c1ccc(N=Nc2n[nH]c3ccccc23)cc1" ; yields the recorded call
Ans. active

Qu. What is the recorded call for this compound in the test? CCCCCCCC(CC(=O)O)OC(=O)CC(CCCCCCC)OC1OC(C)C(O)C(O)C1OC1OC(C)C(O)C(O)C1O (configuration not stated)
Ans. active

Qu. Status in this test for "CCOC(=O)C(=Cc1ccccc1)C(=O)OCC" ?
Ans. active

Qu. Recorded test outcome, item CC(C)NC(=O)O/N=C1\CCC2[C@@H]3CC=C4C[C@@H](OC(=O)NC(C)C)CC[C@]4(C)C3CC[C@]12C (some centres not stated)
Ans. active

Qu. // param item: "COc1ccc(CCCC(=O)O)c2c(OC)cccc12" ; yields the recorded call
Ans. active
